# key: entry, value: normalized growth
Assay: chemical genetic growth profiling, strain panel (AID 1159580);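 also: tested at 20 µM; growth read once vehicle control cultures reached saturation at 30 °C; 1 = growth at the plate median or of vehicle wells; lower values mean less growth of the strain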
Settings: S. cerevisiae deletion strains, growth OD, locus YML016C, strain PPZ1, stronger effect = lower value
Screen size: about 5,500 compounds; about 2,000 (36%) were called active. Not shown: some 18% with an inconclusive outcome. The list shows a part of the results.
Lab note: record just the number, no unit beside it.

Worked cases, answers included:
compound=O=c1[nH]cnc2nc[nH]c12 reported=0.995
compound=O=[N+]([O-])/N=C1/NCCN1Cc1ccc(Cl)cc1 reported=0.999
compound=O=c1[nH]c2ccccc2n1C1CCN(CCCC(c2ccc(F)cc2)c2ccc(F)cc2)CC1 reported=0.992
compound=CC1(C)C=Cc2c(cc3occ(-c4ccc5c(c4)OCO5)c(=O)c3c2O)O1 reported=0.954
compound="O=C1OC(=O)C2C3CCC(O3)C12 (stereo unspecified)" reported=1.01

Ask: GET /values?readout=normalized growth&item= CCOc1ccc(Cc2nccc3cc(OCC)c(OCC)cc23)cc1OCC
Result: 0.973

Ask: GET /values?readout=normalized growth&item= O=c1c(-c2ccc3c(c2)OCO3)coc2cc(O)ccc12
Result: 0.985

Ask: GET /values?readout=normalized growth&item= COc1cc2c(cc1-c1coc3c4c(c(OC)cc3c1=O)OC(C)(C)C=C4)OCO2
Result: 0.987

Ask: GET /values?readout=normalized growth&item= COc1ccc2c(=O)c(-c3cc4c(cc3OC)OCO4)coc2c1
Result: 1.02

Ask: GET /values?readout=normalized growth&item= COc1c2c(cc3occ(-c4ccc5c(c4)OCO5)c(=O)c13)OC(C)(C)C=C2
Result: 1

Ask: GET /values?readout=normalized growth&item= O=C(CCCN1CC=C(n2c(=O)[nH]c3ccccc32)CC1)c1ccc(F)cc1
Result: 0.987

###

# key: entry, value: normalized growth
Assay: chemical genetic growth profiling, strain panel (AID 1159580);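 also: tested at 20 µM; growth read once vehicle control cultures reached saturation at 30 °C; 1 = growth at the plate median or of vehicle wells; lower values mean less growth of the strain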
Conditions: S. cerevisiae deletion strains, growth OD, locus YGR229C, strain SMI1, stronger effect = lower value
Out of some 5,500 compounds screened, about 2,000 (36%) were called active. Inconclusive results (about 18%) are left out. Some of the results follow.

molecule="O=C(NC(c1ccccc1)C(N=Cc1ccccc1)c1ccccc1)c1ccccc1 (stereo not drawn)" experimental_endpoint="normalized growth" reported="1.02 (inactive)"
molecule=COc1c2occc2cc2ccc(=O)oc12 experimental_endpoint="normalized growth" reported="0.948 (inactive)"

Ask: GET /values?readout=normalized growth&item= COc1cc(Cl)c(Cl)cc1Cl
Result: 0.997 (inactive)

Ask: GET /values?readout=normalized growth&item= Nc1nc2c(nc(Br)n2C2OC3COP(=O)(O)O[C@@H]3C2O)c(=O)[nH]1 (stereo partly drawn)
Result: 1.02 (inactive)

Ask: GET /values?readout=normalized growth&item= CC(=O)N[C@@H](CC(=O)O)C(=O)O
Result: 1.01 (inactive)

Ask: GET /values?readout=normalized growth&item= CC1=CC(C)(C)NC(=S)N1
Result: 1.02 (inactive)

Ask: GET /values?readout=normalized growth&item= O=c1n(CCCN2CCN(c3cccc(Cl)c3)CC2)nc2ccccn12
Result: 1.01 (inactive)

Ask: GET /values?readout=normalized growth&item= O=C(CSc1nnc(-c2ccco2)n1-c1ccc2c(c1)OCCO2)c1cccc(F)c1
Result: 1 (inactive)

Ask: GET /values?readout=normalized growth&item= COc1ccc(/C(C#N)=C/c2ccc(OC)c(OC)c2)cc1
Result: 0.972 (inactive)

Ask: GET /values?readout=normalized growth&item= COC(=O)C1=CO[C@@H](O[C@@H]2O[C@H](CO)[C@@H](O)[C@H](O)[C@H]2O)[C@@H]2[C@@H](C)[C@@H](O)C[C@H]12
Result: 1.03 (inactive)

Ask: GET /values?readout=normalized growth&item= CCCN(CCC)[C@H]1CCc2c(F)ccc(O)c2C1
Result: 1.02 (inactive)

Ask: GET /values?readout=normalized growth&item= CC(C)(O)CC[C@@H](O)[C@](C)(O)C1CC[C@@]2(O)C3=CC(=O)C4C[C@@H](O)[C@@H](O)C[C@]4(C)C3CC[C@]12C (stereo partly drawn)
Result: 1.04 (inactive)

Ask: GET /values?readout=normalized growth&item= NOCC(=O)O
Result: 0.979 (inactive)

Ask: GET /values?readout=normalized growth&item= N#CCCNc1cc(C(F)(F)F)cc(C(F)(F)F)c1
Result: 0.981 (inactive)

Ask: GET /values?readout=normalized growth&item= Cc1cc(O)c2c(c1O)C(=O)c1c(O)cc(C)c(O)c1C2=O
Result: 0.992 (inactive)

###

Test: chemical genetic growth profiling, strain panel (AID 1159580);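 also: tested at 20 µM; growth read once vehicle control cultures reached saturation at 30 °C; 1 = growth at the plate median or of vehicle wells; lower values mean less growth of the strain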
Conditions: S. cerevisiae deletion strains, growth OD, locus YER015W, strain faa2, stronger effect = lower value
Hit rate of the full screen: of about 5,500 compounds, about 2,000 (36%) were called active. Another 18% or so got no clear call; they are omitted. The list shows a part of the results.
# key: entry, value: normalized growth
Lab note: record just the number, no unit beside it.

Worked cases, answers included:
molecule=CC(C)=CCOc1c2occc2cc2ccc(=O)oc12 experimental_endpoint="normalized growth" reported=0.935
molecule=Cc1cc(O)c2c(c1O)C(=O)c1c(O)cc(C)c(O)c1C2=O experimental_endpoint="normalized growth" reported=0.95
molecule=Nc1ncnc2c1ncn2[C@@H]1O[C@H](CO)[C@@H](O)[C@@H]1O experimental_endpoint="normalized growth" reported=1.01
molecule="CC(=O)OC1CCC23C(=O)OC45CCC(C6=CC(=O)OC6)C4(C)CCC2C5CCC3(O)C1 (stereo not drawn)" experimental_endpoint="normalized growth" reported=0.977
molecule=O=c1ccc2ccc(O)c(O)c2o1 experimental_endpoint="normalized growth" reported=0.999
molecule=Cn1c([N+](=O)[O-])cnc1COC(N)=O experimental_endpoint="normalized growth" reported=1.01
molecule=O=C1c2ccccc2C(=O)c2c1ccc(O)c2O experimental_endpoint="normalized growth" reported=0.39
molecule=COc1cc(OC)c2c(=O)c(-c3ccc4c(c3)OCO4)coc2c1 experimental_endpoint="normalized growth" reported=1
molecule=Cc1c(N(C)CS(=O)(=O)O)c(=O)n(-c2ccccc2)n1C experimental_endpoint="normalized growth" reported=1.01
molecule=COc1c2c(cc3occ(-c4ccc5c(c4)OCO5)c(=O)c13)OC(C)(C)C=C2 experimental_endpoint="normalized growth" reported=1

Ask: GET /values?readout=normalized growth&item= CCOc1nc2cccc(C(=O)OC(C)OC(=O)OC3CCCCC3)c2n1Cc1ccc(-c2ccccc2-c2nn[nH]n2)cc1 (stereo not drawn)
Result: 1.02

Ask: GET /values?readout=normalized growth&item= O=c1cc(-c2ccc(O)cc2)oc2cc(O[C@@H]3O[C@H](CO)[C@@H](O)[C@H](O)[C@H]3O[C@@H]3OC[C@](O)(CO)[C@H]3O)cc(O)c12
Result: 1.01

Ask: GET /values?readout=normalized growth&item= O=c1c(-c2ccc3c(c2)OCO3)coc2cc(O)ccc12
Result: 0.99

Ask: GET /values?readout=normalized growth&item= COc1cc2ccc(=O)oc2c(OC)c1OC
Result: 0.995

Ask: GET /values?readout=normalized growth&item= COc1ccc2ccc(=O)oc2c1CC=C(C)C
Result: 0.935

Ask: GET /values?readout=normalized growth&item= CC1(C)C[C@@H]2C(=O)CC[C@H]3O[C@]3(C)CC[C@H]21
Result: 1.01

Ask: GET /values?readout=normalized growth&item= CC(C)=CCOc1cc2oc(=O)ccc2cc1O
Result: 0.937

Ask: GET /values?readout=normalized growth&item= CC(=O)N[C@@H](CC(=O)O)C(=O)O
Result: 1.01

###

# key: entry, value: normalized growth
Test: chemical genetic growth profiling, strain panel (AID 1159580);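 also: tested at 20 µM; growth read once vehicle control cultures reached saturation at 30 °C; 1 = growth at the plate median or of vehicle wells; lower values mean less growth of the strain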
Settings: S. cerevisiae deletion strains, growth OD, locus YHR079C, strain IRE1 (second series), stronger effect = lower value
The whole screen tested about 5,500 compounds, of which about 2,000 (36%) were called active. Another 18% or so got no clear call; they are omitted. The list shows a part of the results.
Lab note: record just the number, no unit beside it.

Worked cases, answers included:
molecule=OCCN1CCN(CCCN2c3ccccc3Sc3ccc(Cl)cc32)CC1 experimental_endpoint="normalized growth" reported=0.984
molecule=O=c1n(CCCN2CCN(c3cccc(Cl)c3)CC2)nc2ccccn12 experimental_endpoint="normalized growth" reported=0.998
molecule="CC(=O)OC1CCC2C3CCc4cc(O)ccc4C3CCC12C (configuration not stated)" experimental_endpoint="normalized growth" reported=1
molecule="C[C@]12CCC3c4ccc(O)cc4CCC3C1CC[C@@H]2OC(=O)CCC1CCCC1 (some centres not stated)" experimental_endpoint="normalized growth" reported=0.996
molecule=c1ccc2c(c1)[nH]c1cnccc12 experimental_endpoint="normalized growth" reported=0.984

Ask: GET /values?readout=normalized growth&item= CC(=O)OC1CCC23C(=O)OC45CCC(C6=CC(=O)OC6)C4(C)CCC2C5CCC3(O)C1 (configuration not stated)
Result: 0.994

Ask: GET /values?readout=normalized growth&item= CCOC(=O)C1=C(C)NC(C)=C(C(=O)OC)C1c1cccc([N+](=O)[O-])c1 (configuration not stated)
Result: 1

Ask: GET /values?readout=normalized growth&item= COc1ccc2c(=O)c(CC(=O)O)coc2c1
Result: 0.984

Ask: GET /values?readout=normalized growth&item= C[C@]12C=CC(=O)C=C1CCC1C2CC[C@]2(C)C(=O)CCC12 (some centres not stated)
Result: 0.987

Ask: GET /values?readout=normalized growth&item= COc1cc2ccc(=O)oc2c(OC)c1OC
Result: 1.01

Ask: GET /values?readout=normalized growth&item= COc1cc2ccc(=O)oc2c(O)c1O
Result: 0.996

Each recorded value in this set is attributed to PubChem BioAssay AID1159580.
